experiment: physchem; details: 1-octanol/aqueous buffer, pH 7.4
Label YES when logD is at or above 0.8; otherwise label NO.

O=c1[nH]c2c(O)ccc([C@@H](O)CNCCc3ccc(CNCCc4ccccn4)cc3)c2s1: NO
O=c1[nH]c2c(O)ccc([C@@H](O)CNCCc3cccc(CNCCCc4ccccc4)c3)c2s1: YES
O=c1[nH]c2c(O)ccc([C@@H](O)CNCCc3ccc(CNCCc4ccccc4F)cc3)c2s1: YES

With those in mind, consider the next compound.
Query :: Item `O=c1[nH]c2c(O)ccc([C@@H](O)CNCCc3ccc(CNCCc4c(Cl)cccc4Cl)cc3)c2s1` with logD of 0.8 or above?
Result :: YES

* * *

molecular target: UniProtKB P07550; assay: Displacement of radiolabeled iodocyanopindolol from recombinant beta2 adrenoceptor
Sequence (P07550 whole entry): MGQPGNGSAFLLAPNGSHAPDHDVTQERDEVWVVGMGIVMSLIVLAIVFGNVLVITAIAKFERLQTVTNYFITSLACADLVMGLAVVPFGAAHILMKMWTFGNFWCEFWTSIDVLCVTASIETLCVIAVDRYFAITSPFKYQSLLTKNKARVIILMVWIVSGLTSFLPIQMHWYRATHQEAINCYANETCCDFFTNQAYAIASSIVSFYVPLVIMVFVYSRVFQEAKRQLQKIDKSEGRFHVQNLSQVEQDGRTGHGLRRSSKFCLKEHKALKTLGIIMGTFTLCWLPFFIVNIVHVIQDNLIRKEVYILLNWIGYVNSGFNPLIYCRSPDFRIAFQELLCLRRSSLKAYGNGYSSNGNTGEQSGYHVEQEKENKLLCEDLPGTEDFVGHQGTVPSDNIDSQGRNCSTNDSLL
Listed next: entries and their corresponding pIC50.
// returns pIC50 (minus log10 of molar concentration), number only

The cases that follow already have their pIC50 on record.
O=c1[nH]c2c(O)ccc(CCNCCc3cccc(CN[C@H]4C[C@@H]4c4ccccc4)c3)c2s1: 7.90
COc1ccccc1CN(C)Cc1cccc(CCNC[C@H](O)c2ccc(O)c3[nH]c(=O)sc23)c1: 7.60
O=c1[nH]c2c(O)ccc([C@@H](O)CNCCc3ccc(-c4cccc(CN5Cc6ccccc6C5)c4)cc3)c2s1: 7.20
O=c1[nH]c2c(O)ccc([C@@H](O)CNCCc3cccc(CNCCc4ccccn4)c3)c2s1: 8.60
O=c1[nH]c2c(O)ccc(CCNCCc3ccc(CNCCc4ccccn4)cc3)c2s1: 7.00

Let me check: `CCN(Cc1ccncc1)Cc1cccc(-c2ccc(CCNCCc3ccc(O)c4[nH]c(=O)sc34)cc2)c1` , system UniProtKB P07550, measured pIC50 is 6.10

Fill in: UniProtKB P07550 pIC50 for `C[C@@H](NCc1ccccc1-c1ccc(CCNC[C@H](O)c2ccc(O)c3[nH]c(=O)sc23)cc1)c1ccccc1` = 8.70

Item `O=c1[nH]c2c(O)ccc(CCNCCc3ccc(CNCCc4ccccc4F)cc3)c2s1` ; assay system UniProtKB P07550; pIC50 reported as 5.90

Given the molecule `COc1ccccc1CNCc1ccc(CCNC[C@H](O)c2ccc(O)c3[nH]c(=O)sc23)cc1` and test system UniProtKB P07550, the measured pIC50 is 6.90

UniProtKB P07550 assay, molecule `Cc1cccc2c(CCNCc3ccc(CCNC[C@H](O)c4ccc(O)c5[nH]c(=O)sc45)cc3)c[nH]c12` , recorded pIC50 = 8.70

Record `O=c1[nH]c2c(O)ccc(CCNCCc3ccc(-c4cccc(CN5Cc6ccccc6C5)c4)cc3)c2s1` / UniProtKB P07550, pIC50 recorded as 7.80

With UniProtKB P07550 as the test system, `O=c1[nH]c2c(O)ccc([C@@H](O)CNCCc3cccc(CN4CCCC4)c3)c2s1` showed pIC50 of 8.40

UniProtKB P07550 assay, molecule `O=c1[nH]c2c(O)ccc([C@@H](O)CNCCc3cccc(CNCCCc4ccccc4)c3)c2s1` , recorded pIC50 = 9.10

* * *

Reported Vd values for a set of compounds
assay: Apparent volume of distribution during terminal phase in iv dosed rat; format: ADME, organism-based; conditions: in vivo, read-out: Vz
Respond with the bare value in L/kg.

Please review the entries below; each comes with its answer.
O=c1[nH]c2c(O)ccc([C@@H](O)CNCCc3cccc(CNCCc4ccccc4F)c3)c2s1: 8.2
COCCNCc1cccc(CCNC[C@H](O)c2ccc(O)c3[nH]c(=O)sc23)c1: 28
COc1ccccc1CNCc1cccc(CCNC[C@H](O)c2ccc(O)c3[nH]c(=O)sc23)c1: 22
O=c1[nH]c2c(O)ccc([C@@H](O)CNCCc3cccc(CNCCc4ccccn4)c3)c2s1: 41
C[C@@H](NCc1ccccc1-c1ccc(CCNCCc2ccc(O)c3[nH]c(=O)sc23)cc1)c1ccccc1: 22
Cc1cccc2c(CCNCc3ccc(CCNC[C@H](O)c4ccc(O)c5[nH]c(=O)sc45)cc3)c[nH]c12: 29

Entry `O=c1[nH]c2c(O)ccc(CCNCCc3cccc(-c4cccc(CNCc5ccccc5)c4)c3)c2s1` ; Vd = 29

Data credit: ChEMBL document CHEMBL1944599
